Entries and their measured self-cleavage follow.
B1: CPEB3 Ribozyme (parent)
chain: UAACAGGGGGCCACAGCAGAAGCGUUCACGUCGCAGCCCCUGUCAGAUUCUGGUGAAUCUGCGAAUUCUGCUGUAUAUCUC

Variants of: B1
ASSAY DETAILS: self-cleavage, relative activity (ratio to wild type); higher = more cleavage; in vitro, sequencing

VARIANT ID | self-cleavage
A21U A28U | 0.23
A13G C32U | 0.18
U43C G52U | 1.06
A21G C40A | 0.26
G55A U60A | 0.44
A28G C79U | 0.88
C37A U49A | 0.13
A35C U48C | 0.47
G9A U26G | 0.07
C44A U74C | 0.63
A13U A56G | 1.07
